Below, each of the proteins is paired with its reported Enzyme Activity Endpoint Assay: Fab′2 value.
# systemUnderTest: pooled human IgG
Field note: include the unit after the figure.

Example entries begin here.
{"protein": "PRT-28 (protein) MANQEIRYSEVTPYHVTSVWTKGVTPPANFTQGEDVFHAPYVANQGWYDITKTFNGKDDLLCGAATAGNMLHWWFDQNKDQIKRYLEEHPEKQKINFNGEQMFDVKEAIDTKDHQLDSKLFEYFKEKAFPYLSTKHLGVFPDHVLDMFINGYRLSLTNHGPTPVKEGSKDPRGGIFDAVFTRGDQSKLLTSRHDFKEKTLKEISDLIKKELTEGKALGLSHTYANVRINHVINLWGADFDSNGNLKAIYVTDSDSNASIGMKKYFVGVNSAGKVAISAKEIKEDNIGAQVLGLFTLSTGQDSWNQTN", "measure": "Enzyme Activity Endpoint Assay: Fab′2", "measurement": "16 ng/µL"}
{"protein": "PRT-20 (protein) MANQEIRYSEATPYHITSVWTKGVTPPANFTQGEDVFHAPYVPNQGWYDITKTFNGKDDLLCGAATAGNMLHWWFDQNKDQIERYLKEHPEKQKINFNGEQMFDVKEAIDTKDSQTDSKLFNYFKEKAFPYLSTKHLGVFPDHVLDMFINGYRLSLTNHGPTPVKEQSKDPRGGIFDAVFTRGDQSTLLTSRHDFKEKTLKEISDLIKKELQEGKALGISHTYANVRINHVINLWGADFNSEGNLEAIYVTDSDSNASIGMKKYYVGVNSAGKVAISAKEIEDDNIGAQVLGLFTLSTGKDIWEQTN", "measure": "Enzyme Activity Endpoint Assay: Fab′2", "measurement": "48 ng/µL"}
{"protein": "PRT-53 (protein) MANQEIRYSEVTPYHVTSVWTKGVTPPANFTQGEDVFHAPYVANQGWYDITKTFNGKDDLLCGAATAGNMLHWWFDQNKDQIDRYLEEHPEKQKINFNGEQMFDVKEAIDTKNDQLDSKLFEYFKEKAFPYLSTKHLGVFPDLVIDMFINGYRLSLTNHGPTPVKEGSKDPRGGIFDAVFTRGDQSKLLTSRHDFKEKNLKEISDLIKKELTEGKALGLSHTYANVRINHVINLWGADFDSNGNLKAIYVTDSDSNASIGMKKYFVGVNSAGKVAISAKEIKEDNIGAQVLGLFTLSTGQDSWNQTN", "measure": "Enzyme Activity Endpoint Assay: Fab′2", "measurement": "7 ng/µL"}

Task: Using the record for PRT-33 (protein) MANQEIRYSEVTPYHVTSVWTKGVTPPANFTQGEDVFHAPYVANQGWYDITKTFNGKDDLLCGAATAGNMLHWWFDQNKDQIKRYLKEHPEKQKINFNGEQMFDVKEAIDTKNHQLDSKLFEYFKEKAFPYLSTKHLGVFPDHVIDMFINGYRLSLTNHGPTPVKEGSKDPRGGIFDAVFTRGDQSKLLTSRHDFKEKNLKEISDLIKKELTEGKALGLSHTYANVRINHVINLWGADFDSNGNLKAIYVTDSDSNASIGMKKYFVGVNSAGKVAISAKEIKEDNIGAQVLGLFTLSTGQDSWNQTN , report its Enzyme Activity Endpoint Assay: Fab′2.
Output: 26 ng/µL
